Assay: log P determination by HPLC on reversed-phase (C18) columns, OECD Guideline 117
Assay type: physicochemical
Conditions: reversed-phase (C18) HPLC column, pH 7.8, HPLC, neutral range pH 7.8, 0.001 molar aqueous ammonium hydrogencarbonate/acetonitrile; read-out: logp-neutral
Attribute: chromatographic logP
value_kind: chromatographic logP

>>> print(df.to_string())
                       smiles_representation            value_kind  test_value
 0  Cc1cc(F)c(-c2ncc(C(=O)O)n2C)cc1SCC(F)(F)F  chromatographic logP        0.95
 1  CN(C(=O)c1cnc(-c2cccc(COC3CCOCC3)c2)n1C)c1cccnc1  chromatographic logP        1.57
 2  Cc1cc(F)c(-c2ncc(C(=O)N(C)c3cccnc3)n2C)cc1SCC(F)(F)F  chromatographic logP        2.48
 3  COc1ncc(Cl)cc1-c1ncc(C(=O)N(C)c2cccnc2)n1C  chromatographic logP        1.64
 4  CN(C(=O)c1cnc(-c2ccc(F)c(C(F)(F)F)c2)n1C)c1cccnc1  chromatographic logP        2.08
 5  COC(=O)c1cnc(-c2cc(SCC(F)(F)F)c(C)cc2F)n1C  chromatographic logP        3.19
 6  COc1ncc(-c2ncc(C(=O)N(C)c3cccnc3)n2C)cc1C#N  chromatographic logP        1.44
 7  CN(C(=O)c1cnc(-c2ccc(C#N)c(C(F)(F)F)c2)n1C)c1cccnc1  chromatographic logP        1.92
 8  COc1ccc(-c2ncc(C(=O)N(C)c3cccnc3)n2C)c(OC)n1  chromatographic logP        1.69
 9  CN(C)c1ncc(-c2ncc(C(=O)N(C)c3cccnc3)n2C)cc1C#N  chromatographic logP         1.5
10  CCN(C(=O)c1cnc(-c2cnc(OC)c(C#N)c2)n1C)c1cccnc1  chromatographic logP        1.65
11  COc1cccc(-c2ncc(C(=O)N(C)c3cccnc3)n2C)n1  chromatographic logP         1.6
12      CN(C(=O)c1cnc(-c2ccccn2)n1C)c1cccnc1  chromatographic logP        1.16
13    CN(C(=O)c1cnc(-c2cn(C)nn2)n1C)c1cccnc1  chromatographic logP        0.76
14  COc1cc(-c2ncc(C(=O)N(C)c3cccnc3)n2C)cc(C(F)(F)F)n1  chromatographic logP        2.23
15            C#Cc1ncc(C(=O)N(C)c2cccnc2)n1C  chromatographic logP        0.87
16  Cc1cc(F)c(B2OC(C)(C)C(C)(C)O2)cc1SCC(F)(F)F  chromatographic logP         4.8
17                CCN(C(=O)c1cncn1C)c1cccnc1  chromatographic logP        0.78
18      CN(C(=O)c1cnc(-c2ncccn2)n1C)c1cccnc1  chromatographic logP        0.73
19             CN(C(=O)c1cnc(Br)n1C)c1cccnc1  chromatographic logP        0.93
20  CN(C(=O)c1cnc(-c2cncc(C#N)c2)n1C)c1cccnc1  chromatographic logP        0.98
21  CN(C(=O)c1cnc(-c2cc(-c3ccccc3)no2)n1C)c1cccnc1  chromatographic logP        2.37

---

Attribute: chromatographic logP
Assay: log P determination by HPLC on reversed-phase (C18) columns, OECD Guideline 117
Type: physicochemical
Conditions: reversed-phase (C18) HPLC column, pH 2.7, HPLC, acidic range pH 2.7, 0.1% aqueous formic acid/acetonitrile; read-out: logp-acidic
Description: The log P values were determined in accordance with OECD Guideline 117 (EC Directive 92/69/EEC) by HPLC (high-performance liquid chromatography) using reversed-phase (RP) columns (C18), by the following methods: [a] The LC-MS determination in the acidic range was carried out at pH 2.7 with 0.1% aqueous formic acid and acetonitrile (contains 0.1% formic acid) as mobile phases; linear gradient from 10% acetonitrile to 95% acetonitrile. [b] […]
value_kind: chromatographic logP

In [3]: df
Out[3]:
                      smiles_representation            value_kind  test_value
0  COc1cccc(-c2ncc(C(=O)N(C)c3cccnc3)n2C)n1  chromatographic logP        1.23
1  CN(C(=O)c1cnc(-c2cccc(COC3CCOCC3)c2)n1C)c1cccnc1  chromatographic logP        1.11
2  COc1ccc(-c2ncc(C(=O)N(C)c3cccnc3)n2C)c(OC)n1  chromatographic logP        0.89
3  Cc1cc(F)c(-c2ncc(C(=O)N(C)c3cccnc3)n2C)cc1SCC(F)(F)F  chromatographic logP        2.23
4  COc1ncc(-c2ncc(C(=O)N(C)c3cccnc3)n2C)cc1C#N  chromatographic logP         1.2
5      CN(C(=O)c1cnc(-c2ccccn2)n1C)c1cccnc1  chromatographic logP        0.74
6  CCN(C(=O)c1cnc(-c2cnc(OC)c(C#N)c2)n1C)c1cccnc1  chromatographic logP        1.46
7  CN(C(=O)c1cnc(-c2ccc(C#N)c(C(F)(F)F)c2)n1C)c1cccnc1  chromatographic logP        1.72
8            C#Cc1ncc(C(=O)N(C)c2cccnc2)n1C  chromatographic logP        0.53

---

System: Myzus persicae
Assay: Myzus persicae - spray test (bell pepper plants)
Format: in vivo
Details: 20 ppm, after 6 days
Attribute: kill in % (aphids killed)
value_kind: kill in % (aphids killed) (%)

                                   molecule  target_of_assay  test_value
0  CN(C(=O)c1cnc(-c2cccc([S+]([O-])C(F)(F)F)c2)n1C)c1cccnc1 (stereo not shown) [Example 49]   Myzus persicae         100
1  CN(C(=O)c1cnc(-c2ccc(F)c(COC(=O)C3CC3)c2)n1C)c1cccnc1 [Example 46]   Myzus persicae          95
2  CN(C(=O)c1cnc(-c2ccc(F)c(C(F)(F)F)c2)n1C)c1cccnc1 [Example 50]   Myzus persicae         100
3  CN(C(=O)c1cnc(-c2ccc(Cl)cc2Cl)n1C)c1cccnc1 [Example 12]   Myzus persicae         100
4  CN(C(=O)c1cnc(-c2cc(Cl)cc(C(F)(F)F)c2)n1C)c1cccnc1 [Example 51]   Myzus persicae         100
5  CN(C(=O)c1cnc(-c2cc3ccccc3o2)n1C)c1cccnc1 [Example 70]   Myzus persicae          95
6  CCN(C(=O)c1cnc(-c2ccccn2)n1C)c1cccnc1 [Example 77]   Myzus persicae         100

---

Test: log P determination by HPLC on reversed-phase (C18) columns, OECD Guideline 117
Type: physicochemical
Conditions: pH 7.8
value_kind: logp-neutral

>>> df
                                   compound  test_value
0  CN(C(=O)c1cnc(-c2ccc(F)c3ccccc23)n1C)c1cccnc1 [Example 30]        2.05
1  CCOC(=O)c1cc(-c2ncc(C(=O)N(C)c3cccnc3)n2C)on1 [Example 72]        1.51
2  CN(C(=O)c1cnc(-c2cccc(S(C)(=O)=O)c2)n1C)c1cccnc1 [Example 22]        1.08
3  CN(C(=O)c1cnc(-c2ccc(F)c(COC(=O)C3CC3)c2)n1C)c1cccnc1 [Example 46]        1.35
4  COc1ncc(F)cc1-c1ncc(C(=O)N(C)c2cccnc2)n1C [Example 101]        1.38
5  CCOc1ncccc1-c1ncc(C(=O)N(C)c2cccnc2)n1C [Example 92]        1.43
6  CSc1ccccc1-c1ncc(C(=O)N(C)c2cccnc2)n1C [Example 98]        1.59
7  CN(C(=O)c1cnc(-c2cnc(N3CCOCC3)c(C#N)c2)n1C)c1cccnc1 [Example 66]        1.45
8  CN(C(=O)c1cnc(-c2cccc([S+]([O-])CC(F)(F)F)c2)n1C)c1cccnc1 (stereo not drawn) [Example 5]        1.43

---

Attribute: efficacy in % (aphids killed)
System: Myzus persicae
Test: Myzus persicae - oral test
Assay type: in vivo
Settings: 20 ppm, after 5 days
Procedure: Solvent: 100 parts by weight of acetone Subsequently, the plates are sealed with parafilm, which a mixed population of green peach aphids (Myzus persicae) within a second microtitre plate is able to puncture and imbibe the solution through it. After 5 days, the efficacy in % is determined. 100% means that all the aphids have been killed; 0% means that no aphids have been killed.
value_kind: efficacy in % (aphids killed) (%)

                                   molecule  test_value
0  CN(C(=O)c1cnc(-c2cnc(N3CCOCC3)c(C#N)c2)n1C)c1cccnc1         100
1  CN(C(=O)c1cnc(-c2cc(Cl)cc(C#N)c2)n1C)c1cccnc1         100
2  COc1cc(-c2ncc(C(=O)N(C)c3cccnc3)n2C)cnc1OC         100
3   CCOc1ncccc1-c1ncc(C(=O)N(C)c2cccnc2)n1C         100
4    CN(C(=O)c1cnc(-c2ncccc2Cl)n1C)c1cccnc1          90
5  COc1ncc(-c2ncc(C(=O)N(C)c3cccnc3)n2C)cc1Cl         100
6  COC(=O)c1cc(F)ccc1-c1ncc(C(=O)N(C)c2cccnc2)n1C         100
7  CN(C(=O)c1cnc(-c2cccc(S(C)(=O)=O)c2)n1C)c1cccnc1         100
8  CN(C(=O)c1cnc(-c2cccc([S+]([O-])C(F)(F)F)c2)n1C)c1cccnc1 (stereo not drawn)         100
